These entries and their values trace back to patent US11844843.

- system: T1, recombinant human TfR1 (transferrin receptor protein 1) (human, UniProt P02786 89-760)
- T1 construct: Recombinant protein in SPR and ELISA; they were assigned to this molecule; also called hTfR1; huTfR1
- T1 sequence (P02786 89-760 limits assumed): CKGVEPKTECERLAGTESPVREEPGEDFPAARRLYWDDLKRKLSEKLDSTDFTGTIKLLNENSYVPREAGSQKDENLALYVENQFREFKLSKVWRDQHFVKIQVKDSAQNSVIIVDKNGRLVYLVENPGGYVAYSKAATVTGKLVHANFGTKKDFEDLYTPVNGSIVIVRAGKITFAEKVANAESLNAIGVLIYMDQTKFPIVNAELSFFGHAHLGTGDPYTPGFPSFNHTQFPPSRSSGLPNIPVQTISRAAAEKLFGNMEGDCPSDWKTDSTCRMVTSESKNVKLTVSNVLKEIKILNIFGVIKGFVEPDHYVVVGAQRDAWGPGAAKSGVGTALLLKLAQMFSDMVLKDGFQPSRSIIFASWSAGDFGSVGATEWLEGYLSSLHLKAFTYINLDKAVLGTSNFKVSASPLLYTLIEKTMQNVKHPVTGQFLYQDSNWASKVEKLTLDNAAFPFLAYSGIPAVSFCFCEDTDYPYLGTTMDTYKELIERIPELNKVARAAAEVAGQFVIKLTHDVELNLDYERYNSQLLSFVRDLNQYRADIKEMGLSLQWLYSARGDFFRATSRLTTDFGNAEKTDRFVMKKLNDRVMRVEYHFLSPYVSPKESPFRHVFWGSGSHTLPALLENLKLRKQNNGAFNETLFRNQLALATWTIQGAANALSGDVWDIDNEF
- method_notes: Table 14, unconjugated Fab, d0; method not named (values equal ELISA row of Table 13)
property_label: Binding affinity (nM)
Report the value in nM with no unit label.

Field: example entries. Status: answers known.
>>> observed("humanized anti-TfR Fab 3A4 VH3/Vκ4 (Fab, V domains shown, also called 3A4 (VH3/Vk4)) VH: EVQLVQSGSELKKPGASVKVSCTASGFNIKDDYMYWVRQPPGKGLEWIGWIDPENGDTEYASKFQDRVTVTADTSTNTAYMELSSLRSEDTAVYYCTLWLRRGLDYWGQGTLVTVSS VL: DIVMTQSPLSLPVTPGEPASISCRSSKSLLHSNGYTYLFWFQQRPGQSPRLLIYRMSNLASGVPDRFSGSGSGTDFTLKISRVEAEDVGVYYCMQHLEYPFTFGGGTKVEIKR")
1.5
>>> observed("humanized anti-TfR Fab 3M12 VH4/Vκ3 (Fab, V domains shown, also called 3M12 (VH4/Vk3); anti-TfR Fab 3M12 VH4/Vk3) VH: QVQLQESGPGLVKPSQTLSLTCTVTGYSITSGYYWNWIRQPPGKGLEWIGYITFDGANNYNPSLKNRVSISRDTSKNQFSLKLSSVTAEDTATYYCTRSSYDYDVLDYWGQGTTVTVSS VL: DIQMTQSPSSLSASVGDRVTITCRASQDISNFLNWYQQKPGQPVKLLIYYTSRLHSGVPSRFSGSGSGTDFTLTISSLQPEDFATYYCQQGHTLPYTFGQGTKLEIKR")
0.5

Switching to the query record.
Supply Binding affinity value. Item: humanized anti-TfR Fab 3M12 VH3/Vκ3 (Fab, V domains shown, also called 3M12 (VH3/Vk3)) VH: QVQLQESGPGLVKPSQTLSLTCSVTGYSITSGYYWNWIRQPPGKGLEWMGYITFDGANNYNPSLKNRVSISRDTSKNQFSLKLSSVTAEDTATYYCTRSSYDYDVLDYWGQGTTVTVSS VL: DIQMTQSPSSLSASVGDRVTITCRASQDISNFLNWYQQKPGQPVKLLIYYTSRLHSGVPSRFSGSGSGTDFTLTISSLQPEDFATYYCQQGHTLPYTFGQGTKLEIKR
0.6
